- System Tested: mu opiate receptor (MOR) (Rattus norvegicus, UniProt P33535)
- Construct: from tissue; host or cells: striatum (membrane preparation)
- Sequence (P33535 whole entry): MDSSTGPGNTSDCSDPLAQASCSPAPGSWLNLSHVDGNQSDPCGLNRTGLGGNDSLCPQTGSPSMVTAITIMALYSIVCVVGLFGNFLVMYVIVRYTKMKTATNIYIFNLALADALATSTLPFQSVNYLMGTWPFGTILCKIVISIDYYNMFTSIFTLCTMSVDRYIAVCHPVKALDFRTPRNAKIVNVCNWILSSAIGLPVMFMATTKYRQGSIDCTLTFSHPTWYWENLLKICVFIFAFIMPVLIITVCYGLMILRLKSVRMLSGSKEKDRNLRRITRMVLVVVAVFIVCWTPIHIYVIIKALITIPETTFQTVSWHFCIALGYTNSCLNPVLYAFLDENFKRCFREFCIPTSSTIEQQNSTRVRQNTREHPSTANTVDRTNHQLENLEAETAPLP
- Run Description: MOR agonist activity using [35S]GTPgS binding assay in striatal membranes
- Assay type: biochemical
- Condition Parameters: 1 μM + BFNA; Series C-2 table
Value Type: MOR agonist activity ([35S]GTPgS binding to Gao) (%)
Respond numerically; units are % and should not be typed.

Give its MOR agonist activity ([35S]GTPgS binding to Gao) value. Item: O=S(=O)(c1cccc2cccnc12)N1CCC2(CC1)OCCN2S(=O)(=O)c1cccc2cccnc12 [Compound C0143M]
86.5

Give its MOR agonist activity ([35S]GTPgS binding to Gao) value. Item: CC(=O)c1ccc(S(=O)(=O)N2CCC3(CC2)NC(=O)CO3)cc1 [Compound C0087M]
142.5

Give its MOR agonist activity ([35S]GTPgS binding to Gao) value. Item: O=C1CN(Cc2ccccc2)C2(CCN(CC3CC3)CC2)N1 [Compound C0125M]
159.7

Give its MOR agonist activity ([35S]GTPgS binding to Gao) value. Item: COc1ccc(S(=O)(=O)N2CCOC23CCN(C(=O)OC(C)(C)C)CC3)cc1
83.3

Value source: patent US20220233512A1
